Data origin: paper PMC11813896

molecular target: recombinant hMAO-A (Homo sapiens); construct: purchased Sigma-Aldrich; test: biochemical; conditions: mean ± SD; read-out: IC50 (nM) for monoamine oxidases hMAO-A
Sequence (P21397 whole entry): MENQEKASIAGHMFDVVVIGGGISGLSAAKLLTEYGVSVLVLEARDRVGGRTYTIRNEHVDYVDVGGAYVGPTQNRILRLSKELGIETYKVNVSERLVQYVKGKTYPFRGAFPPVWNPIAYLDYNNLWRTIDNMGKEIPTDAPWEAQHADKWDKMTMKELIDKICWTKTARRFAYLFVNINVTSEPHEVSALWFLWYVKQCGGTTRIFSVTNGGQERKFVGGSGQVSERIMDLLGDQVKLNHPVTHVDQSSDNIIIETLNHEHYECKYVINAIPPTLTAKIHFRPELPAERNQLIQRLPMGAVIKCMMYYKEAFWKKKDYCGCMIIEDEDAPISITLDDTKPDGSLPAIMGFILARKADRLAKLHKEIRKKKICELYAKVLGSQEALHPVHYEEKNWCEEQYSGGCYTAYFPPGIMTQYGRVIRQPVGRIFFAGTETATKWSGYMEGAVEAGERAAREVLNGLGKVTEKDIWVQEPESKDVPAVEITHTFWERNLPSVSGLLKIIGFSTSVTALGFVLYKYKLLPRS
Assign log10 IC50 to each entry below.
// do not treat as linear: log10 of IC50, unit nM

# count of solved cases: 5
[
  {
    "Molecule": "CCCn1c2cc(OCCCCCCCOc3ccc4c5ccnc(C)c5n(CCC)c4c3)ccc2c2ccnc(C)c21 [Compound 7c]",
    "Readout label": "log10 IC50",
    "Experimental value": 0.96
  },
  {
    "Molecule": "Cc1nccc2c3ccc(OCCCCCCCOc4ccc5c6ccnc(C)c6n(C)c5c4)cc3n(C)c12 [Compound 7a]",
    "Readout label": "log10 IC50",
    "Experimental value": 0.86
  },
  {
    "Molecule": "C=CCn1c2cc(OCCCCCCCOc3ccc4c5ccnc(C)c5n(CC=C)c4c3)ccc2c2ccnc(C)c21 [Compound 7d]",
    "Readout label": "log10 IC50",
    "Experimental value": 1.87
  },
  {
    "Molecule": "Cc1nccc2c3ccc(OCCCCCOc4ccc5c6ccnc(C)c6n(C)c5c4)cc3n(C)c12 [Compound 5a]",
    "Readout label": "log10 IC50",
    "Experimental value": 2.38
  },
  {
    "Molecule": "Cc1nccc2c3ccc(OCCCCCCCCOc4ccc5c6ccnc(C)c6n(C)c5c4)cc3n(C)c12 [Compound 8a]",
    "Readout label": "log10 IC50",
    "Experimental value": 1.98
  }
]

Give measured log10 IC50 for every item shown.
1. CCn1c2cc(OCCCCOc3ccc4c5ccnc(C)c5n(CC)c4c3)ccc2c2ccnc(C)c21 [Compound 4b]
2. CCn1c2cc(OCCCCCCCCOc3ccc4c5ccnc(C)c5n(CC)c4c3)ccc2c2ccnc(C)c21 [Compound 8b]
3. Cc1nccc2c3ccc(OCCCCCCOc4ccc5c6ccnc(C)c6n(C)c5c4)cc3n(C)c12 [Compound 6a]
4. C=CCn1c2cc(OCCCCCCOc3ccc4c5ccnc(C)c5n(CC=C)c4c3)ccc2c2ccnc(C)c21 [Compound 6d]

Response given:
2.84
1.82
2.09
2.60

Challenge: Using the record for C=CCn1c2cc(OCCCCCCCCOc3ccc4c5ccnc(C)c5n(CC=C)c4c3)ccc2c2ccnc(C)c21 [Compound 8d] , report its log10 IC50.
Response given: 1.41

====

target: recombinant hMAO-B (Homo sapiens, UniProt P27338); construct: purchased Sigma-Aldrich; assay: biochemical; conditions: compound at 1 μM; read-out: inhibition of hMAO-B in primary screening
Sequence (P27338 whole entry): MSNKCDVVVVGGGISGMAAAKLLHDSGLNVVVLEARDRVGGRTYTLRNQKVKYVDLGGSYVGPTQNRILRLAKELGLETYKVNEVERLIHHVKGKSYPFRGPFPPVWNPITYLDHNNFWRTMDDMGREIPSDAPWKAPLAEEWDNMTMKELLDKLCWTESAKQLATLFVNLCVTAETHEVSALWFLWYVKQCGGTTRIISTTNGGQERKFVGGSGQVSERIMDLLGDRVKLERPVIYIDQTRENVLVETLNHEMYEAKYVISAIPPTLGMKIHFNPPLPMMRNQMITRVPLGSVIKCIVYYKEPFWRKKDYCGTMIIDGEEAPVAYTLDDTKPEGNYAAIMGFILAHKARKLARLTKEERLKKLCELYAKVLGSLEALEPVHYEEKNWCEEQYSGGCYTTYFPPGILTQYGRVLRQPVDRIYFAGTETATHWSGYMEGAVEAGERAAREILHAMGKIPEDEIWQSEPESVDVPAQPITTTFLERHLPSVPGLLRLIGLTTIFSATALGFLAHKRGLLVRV
Readout label: inhibition at 1 µM

# count of solved cases: 2
[
  {
    "Input smiles": "CCn1c2cc(OCCCCCOc3ccc4c5ccnc(C)c5n(CC)c4c3)ccc2c2ccnc(C)c21",
    "Readout label": "inhibition at 1 µM",
    "Experimental value": "33.7%"
  },
  {
    "Input smiles": "CCCn1c2cc(OCCCCOc3ccc4c5ccnc(C)c5n(CCC)c4c3)ccc2c2ccnc(C)c21",
    "Readout label": "inhibition at 1 µM",
    "Experimental value": "17.8%"
  }
]

Give measured inhibition at 1 µM for every item shown.
1. Cc1nccc2c3ccc(OCCCCOc4ccc5c6ccnc(C)c6n(C)c5c4)cc3n(C)c12
2. C=CCn1c2cc(OCCCCOc3ccc4c5ccnc(C)c5n(CC=C)c4c3)ccc2c2ccnc(C)c21

Response given:
1: 13.8%; 2: 30.3%

Give measured inhibition at 1 µM for every item shown.
1. C=CCn1c2cc(OCCCCCOc3ccc4c5ccnc(C)c5n(CC=C)c4c3)ccc2c2ccnc(C)c21
2. CCCn1c2cc(OCCCCCCCOc3ccc4c5ccnc(C)c5n(CCC)c4c3)ccc2c2ccnc(C)c21

Response given:
1. 29.8%
2. 34.1%
